TEST_TARGET: full length G2019 human LRRK2 (Homo sapiens, UniProt Q5S007, R50H)
Sequence (Q5S007 with tags, fused parts or gaps R50H): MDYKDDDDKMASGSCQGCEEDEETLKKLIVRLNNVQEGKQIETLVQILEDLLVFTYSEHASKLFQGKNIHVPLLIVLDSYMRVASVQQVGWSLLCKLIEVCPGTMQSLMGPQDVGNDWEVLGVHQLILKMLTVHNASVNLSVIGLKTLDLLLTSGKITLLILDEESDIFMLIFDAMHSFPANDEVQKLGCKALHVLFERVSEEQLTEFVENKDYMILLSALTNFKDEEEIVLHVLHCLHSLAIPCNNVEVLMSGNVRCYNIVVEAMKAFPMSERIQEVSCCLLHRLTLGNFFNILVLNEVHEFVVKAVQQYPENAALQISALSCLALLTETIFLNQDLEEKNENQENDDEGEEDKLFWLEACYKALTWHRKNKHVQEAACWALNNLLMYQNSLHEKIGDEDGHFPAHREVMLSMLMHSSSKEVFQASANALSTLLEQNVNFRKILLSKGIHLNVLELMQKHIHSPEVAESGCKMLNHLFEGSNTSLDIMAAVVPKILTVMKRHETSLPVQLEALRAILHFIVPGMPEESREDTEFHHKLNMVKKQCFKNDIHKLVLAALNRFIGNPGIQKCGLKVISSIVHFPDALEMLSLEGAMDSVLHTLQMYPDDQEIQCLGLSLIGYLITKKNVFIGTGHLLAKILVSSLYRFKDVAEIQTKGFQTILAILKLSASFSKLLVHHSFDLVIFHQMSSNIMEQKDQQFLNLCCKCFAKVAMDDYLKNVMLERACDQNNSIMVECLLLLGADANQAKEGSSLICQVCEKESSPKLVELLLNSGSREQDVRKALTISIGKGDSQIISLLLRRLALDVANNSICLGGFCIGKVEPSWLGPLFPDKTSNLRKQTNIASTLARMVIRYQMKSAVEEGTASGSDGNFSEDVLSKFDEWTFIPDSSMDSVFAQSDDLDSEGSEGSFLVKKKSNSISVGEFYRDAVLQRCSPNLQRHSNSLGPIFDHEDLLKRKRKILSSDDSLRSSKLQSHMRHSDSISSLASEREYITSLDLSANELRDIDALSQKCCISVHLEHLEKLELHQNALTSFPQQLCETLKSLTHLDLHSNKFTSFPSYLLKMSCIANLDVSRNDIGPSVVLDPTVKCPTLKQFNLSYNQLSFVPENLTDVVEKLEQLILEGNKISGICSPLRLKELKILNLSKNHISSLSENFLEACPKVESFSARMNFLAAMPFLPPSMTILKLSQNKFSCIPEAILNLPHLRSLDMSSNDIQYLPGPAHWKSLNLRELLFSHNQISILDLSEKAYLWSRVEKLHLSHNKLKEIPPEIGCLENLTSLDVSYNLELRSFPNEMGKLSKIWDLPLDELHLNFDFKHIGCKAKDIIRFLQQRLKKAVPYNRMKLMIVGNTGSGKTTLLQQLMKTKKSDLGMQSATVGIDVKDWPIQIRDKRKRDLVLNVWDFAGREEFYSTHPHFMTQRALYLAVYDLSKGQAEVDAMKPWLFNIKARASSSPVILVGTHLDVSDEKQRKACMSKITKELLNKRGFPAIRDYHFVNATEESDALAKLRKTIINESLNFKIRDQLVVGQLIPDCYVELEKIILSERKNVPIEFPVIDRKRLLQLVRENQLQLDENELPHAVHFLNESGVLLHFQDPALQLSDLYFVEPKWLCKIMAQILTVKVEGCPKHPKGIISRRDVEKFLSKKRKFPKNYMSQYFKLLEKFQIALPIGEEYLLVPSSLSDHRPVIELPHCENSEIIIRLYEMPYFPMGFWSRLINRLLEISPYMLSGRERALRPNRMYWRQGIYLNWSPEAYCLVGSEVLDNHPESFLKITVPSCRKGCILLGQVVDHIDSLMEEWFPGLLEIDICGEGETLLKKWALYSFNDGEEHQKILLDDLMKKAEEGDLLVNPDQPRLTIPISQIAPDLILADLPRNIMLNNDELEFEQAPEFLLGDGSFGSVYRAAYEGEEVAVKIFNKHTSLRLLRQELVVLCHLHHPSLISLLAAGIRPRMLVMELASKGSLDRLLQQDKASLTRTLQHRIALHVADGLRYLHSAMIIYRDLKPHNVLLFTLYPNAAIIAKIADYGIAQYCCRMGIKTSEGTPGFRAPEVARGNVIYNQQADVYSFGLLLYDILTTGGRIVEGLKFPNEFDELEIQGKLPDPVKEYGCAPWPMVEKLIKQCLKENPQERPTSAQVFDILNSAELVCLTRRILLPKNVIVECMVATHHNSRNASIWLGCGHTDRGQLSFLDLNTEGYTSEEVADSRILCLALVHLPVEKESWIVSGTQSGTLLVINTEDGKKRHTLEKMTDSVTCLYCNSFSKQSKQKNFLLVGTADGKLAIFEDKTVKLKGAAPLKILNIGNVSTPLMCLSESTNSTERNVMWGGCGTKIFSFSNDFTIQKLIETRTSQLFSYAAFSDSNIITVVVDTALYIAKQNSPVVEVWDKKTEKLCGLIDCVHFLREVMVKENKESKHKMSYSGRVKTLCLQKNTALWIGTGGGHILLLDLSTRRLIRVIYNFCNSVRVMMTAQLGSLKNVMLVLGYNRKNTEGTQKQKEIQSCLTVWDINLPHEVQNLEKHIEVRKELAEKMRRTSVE
PROTOCOL_SUMMARY: Full length G2019 human LRRK2 inhibition mass spectrometry assay
CONDITIONS_USED: LRRKtide to phospho-LRRKtide conversion, RapidFire MS, 2 mM ATP
Experimental: a. Full Length G2019 Human LRRK2 Inhibition Mass Spectrometry Assay […] • 1) Compounds were dissolved in 100% DMSO at a concentration of 10 mM, and 11-point dose response curves generated using a 1 in 4 serial dilution in DMSO. […] Test plates were then analysed on an Agilent RapidFire High Throughput solid phase extraction system coupled to AB Sciex API 4000 triple quadropole mass spectrometer with the following setting: […]
pIC50: −log10 of the molar value.
REPORTED_METRIC: pIC50

Field: example entries. Status: answers known.
Cc1c2c(nn1CC(C)(C)O)OCCC(C)Nc1nc(ncc1Cl)N2 (single isomer, unassigned) [E265]	≥ 7.00
Cc1c2c(nn1C1CCOCC1F)OCCC(C)Nc1nc(ncc1Cl)N2 (single isomer, unassigned) [E28]	≥ 7.00
Cc1c2c(nn1C1CN(C3CCOCC3)C1)OC[C@@H](F)[C@@H](C)Nc1nc(ncc1Cl)N2 [E388]	≥ 7.00
Cc1c2c(nn1CCN1CCOCC1)OCCC(C)Nc1nc(ncc1Cl)N2 (single isomer, unassigned) [E212]	≥ 5.00

Asked: What pIC50 value was documented for this compound, C[C@@H]1CCOc2n[nH]c(Cl)c2Nc2ncc(Cl)c(n2)N1 [E397] ?
Given back: ≥ 7.00

Asked: I'd like to know its pIC50. The compound in question is Cc1c2c(nn1C1CCC(N3C[C@H]4C[C@@H]3CO4)CC1)OCCC(C)Nc1nc(ncc1Cl)N2 (single isomer, unassigned) [E58]
Given back: ≥ 7.00

Asked: Reported pIC50 for COC1CCCC(n2nc3c(c2C)Nc2ncc(Cl)c(n2)NCCCO3)C1 (single isomer, unassigned) [E181] : what is it?
Given back: 4.00

----------
Measured IC50, listed per entry.
TEST_TARGET: full length G2019 human LRRK2 (Homo sapiens, UniProt Q5S007, R50H)
PROTOCOL_SUMMARY: Full length G2019 human LRRK2 inhibition mass spectrometry assay
CONDITIONS_USED: LRRKtide to phospho-LRRKtide conversion, RapidFire MS, 2 mM ATP

Consider the following illustrative entries.
Cc1c2c(nn1C1CCOCC1)OCC(C)C(C)Nc1nc(ncc1Cl)N2 (single isomer, unassigned) [E31]	≤ 100 nM
Cc1c2c(nn1C1CCOCC1(C)C)OCC[C@@H](C)Nc1nc(ncc1Cl)N2 (single isomer, unassigned) [E422]	≤ 100 nM
FC(F)c1c2c(nn1C1CCOCC1)OCCCNc1nc(ncc1Cl)N2 [E112]	≤ 100 nM
Cc1c2c(nn1CC(F)(F)F)OCCCNc1nc(ncc1Cl)N2 [E266]	≤ 100 nM
Cc1c2c(nn1[C@H]1CCOC1)OCC[C@@H](C)Nc1nc(ncc1Cl)N2 [E46]	≤ 10000 nM
Cc1c2c(nn1C1CCOCC1C)OCCCNc1nc(ncc1Cl)N2 (single isomer, unassigned) [E141]	≤ 100 nM
Cc1c2c(nn1C1CCN(C3COC3)CC1)OCC[C@@H](C)Nc1nc(ncc1Cl)N2 [E65]	≤ 100 nM
Cc1c2c(nn1C1CCOCC1)OCCC(C1CC1)Nc1nc(ncc1Cl)N2 (single isomer, unassigned) [E292]	≤ 10000 nM

Asked: Which IC50 reading was recorded for the compound Cc1c2c(nn1C1CCC(N3C[C@H]4C[C@@H]3CO4)CC1)OCCC(C)Nc1nc(ncc1Cl)N2 (single isomer, unassigned) [E56] ?
Given back: ≤ 10000 nM

Asked: Param item = Cc1c2c(nn1C1CCOC1)OCCCNc1nc(ncc1C(F)(F)F)N2 (single isomer, unassigned) [E128] ; retrieve measured IC50.
Given back: ≤ 100 nM

Asked: For Cc1c2c(nn1C1CC(C)OC(C)C1)OCCC(C)Nc1nc(ncc1Cl)N2 (single isomer, unassigned) [E195] , what is its reported IC50?
Given back: ≤ 100 nM

Asked: May I ask what IC50 has been recorded for Cc1c2c(nn1C1CCOCC1(F)F)OCCCNc1nc(ncc1Cl)N2 (single isomer, unassigned) [E415] ?
Given back: ≤ 100 nM

Asked: Returns the measured IC50 for the input compound. Input: Cc1c2c(nn1CCN1C[C@H]3C[C@@H]1CO3)OCCC(C)Nc1nc(ncc1Cl)N2 (single isomer, unassigned) [E210]
Given back: ≤ 100 nM

Asked: What IC50 value was documented for this compound, Cc1c2c(nn1C1CCOCC1)OCC(F)C(C)Nc1nc(ncc1Cl)N2 (single isomer, unassigned) [E63] ?
Given back: ≤ 10000 nM

Asked: Quick check: IC50 of Cc1c2c(nn1C1CCOCC1)OCC[C@H](C)Nc1nc(ncc1Cl)N2 [E7] ?
Given back: ≤ 10000 nM

Asked: I'd like to know its IC50. The compound in question is COCC1CCOc2nn(C3CCOCC3)c(C)c2Nc2ncc(Cl)c(n2)N1 (single isomer, unassigned) [E36]
Given back: ≤ 100 nM
